Study Target: Nuclear respiratory factor 1 (Homo sapiens) (UniProt Q16656)
Sequence (Q16656 whole entry, looked up): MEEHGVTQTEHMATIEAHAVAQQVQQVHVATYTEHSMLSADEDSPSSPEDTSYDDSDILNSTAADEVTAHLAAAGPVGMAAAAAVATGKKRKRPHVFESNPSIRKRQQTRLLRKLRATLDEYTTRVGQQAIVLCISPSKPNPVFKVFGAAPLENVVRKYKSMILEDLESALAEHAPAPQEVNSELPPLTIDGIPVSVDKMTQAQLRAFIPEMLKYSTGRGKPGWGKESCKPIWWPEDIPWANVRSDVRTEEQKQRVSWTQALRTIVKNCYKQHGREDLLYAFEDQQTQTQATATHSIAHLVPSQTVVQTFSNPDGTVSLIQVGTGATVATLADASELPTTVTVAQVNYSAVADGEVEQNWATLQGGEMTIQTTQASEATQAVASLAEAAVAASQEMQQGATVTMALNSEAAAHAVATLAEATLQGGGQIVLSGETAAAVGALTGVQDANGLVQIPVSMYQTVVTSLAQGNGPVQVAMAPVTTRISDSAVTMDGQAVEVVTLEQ
Assay Procedure: ATG_NRF1_CIS: Attagene CIS-FACTORIAL HepG2 Assay for human Nuclear Respiratory Factor 1 (NRF1) Orphan Gene (AID 2282987)
Run Conditions: HepG2 NRF1 cis-element reporter, Attagene multiplex; actives raise or lower the signal
Active and inactive are the calls of the source. Rule for the calls: active = hit-call score of the fitted dose curve at least 0.9, where 1 is the maximum; inactive = score below 0.9.
Assign a class; possible classes are active, inactive

Recorded results for 3 compounds are shown here.
Compound	Study Target	Class Assignment
CN(C)C=O	Nuclear respiratory factor 1 (Homo sapiens) (UniProt Q16656)	inactive
CC(C)(C)CC(C)(C)c1ccc(O)c(-n2nc3ccccc3n2)c1	Nuclear respiratory factor 1 (Homo sapiens) (UniProt Q16656)	inactive
OCCC(F)(F)C(F)(F)C(F)(F)C(F)(F)C(F)(F)C(F)(F)F	Nuclear respiratory factor 1 (Homo sapiens) (UniProt Q16656)	inactive

// query Outcome? `CCOC(=O)CC(O)(CC(=O)OCC)C(=O)OCC`
// result inactive

// query Per the assay record, what outcome was assigned to `C=C(C)C(=O)OCCC(F)(F)C(F)(F)C(F)(F)C(F)(F)C(F)(F)C(F)(F)F` ?
// result inactive

// query Which outcome did this test record for the compound `C[C@@H]1C[C@H]2[C@@H]3CCC4=CC(=O)C=C[C@]4(C)[C@@]3(F)[C@@H](O)C[C@]2(C)[C@@]1(O)C(=O)COP(=O)(O)O` ?
// result inactive

// query Look up the recorded call for `CC(C)(C)c1cccc(C(C)(C)C)c1O` in this test.
// result inactive

// query Dear colleague, could you share the recorded outcome for `CCCCOCCO` when you have a moment?
// result inactive

// query Identify the outcome logged in this assay for the compound shown: CCc1nn(C2CCCCC2)c2cc(C3(C#N)CCC(C(=O)O)CC3)ccc12 (stereo unspecified)
// result active

====

Assay Procedure: ATG_MRE_CIS: Attagene CIS-FACTORIAL HepG2 Assay for human Metal Responsive Element (MRE) (AID 2282954)
Run Conditions: HepG2 MRE cis-reporter transcription, Attagene multiplex; actives raise or lower the signal
Active and inactive are the calls of the source. Rule for the calls: active = hit-call score of the fitted dose curve at least 0.9, where 1 is the maximum; inactive = score below 0.9.
Reply using exactly one outcome from TRUE (active), FALSE (inactive)

Record excerpt, results attached:
CC(C)(C)c1ccc(O)c(C(C)(C)C)c1 FALSE
COc1cc(CCC(=O)CC(=O)CCc2ccc(O)c(OC)c2)ccc1O TRUE
Nc1cccc2c(N)cccc12 FALSE
O=C(OCCOCCOC(=O)c1ccccc1)c1ccccc1 FALSE
Cc1cc(CCN2CCN(c3nsc4ccccc34)CC2)cc2c1NC(=O)CC2(C)C TRUE
O=[N+]([O-])c1ccc(O)cc1 FALSE
CCCCOCCO FALSE
CN1CCC[C@H]1c1cccnc1 FALSE
CCCCCCCCCCCCN1CCCC1=O FALSE

We now examine a further compound.
// query Outcome logged for `CCN(CC)CCNc1ccc(CNC=O)c2sc3ccc(OC)cc3c(=O)c12` in this assay:
// result FALSE

====

Study Target: Aryl hydrocarbon receptor (Homo sapiens)
Assay Procedure: ATG_Ahr_CIS: Attagene CIS-FACTORIAL HepG2 Assay for human Aryl Hydrocarbon Receptor (Ahr) (AID 2282930)
Run Conditions: HepG2 AhR cis-factorial reporter transcription; actives raise or lower the signal
Activity calls are given as the source filed them. How the source made its calls: active means hit-call score of the fitted dose curve at least 0.9, where 1 is the maximum; inactive means score below 0.9.
Log the outcome using a class from yes (active), no (inactive)

Nc1cccc2c(N)cccc12 yes

We next turn to a different compound, shown below.
// query Outcome logged for `CCCCOCCO` in this assay:
// result no

====

Assay Procedure: BSK_3C_SRB: Viability Assessment in the BioMAP Diversity Plus: 3C Assay (AID 2283023);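 note: cells read 24 h after compound dosing; fitted both ways against DMSO so a hit may be signal rise or drop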
Run Conditions: primary human endothelial cells (HUVEC)
Activity calls are given as the source filed them. Rule for the calls: active = hit-call score of the fitted dose curve at least 0.9, where 1 is the maximum; inactive = score below 0.9.
Readout: AC50

Compound	Readout	Recorded Measurement
NC(=O)N1C(=O)C(C(=O)c2cc(Cl)cs2)c2cc(F)c(Cl)cc21 (configuration not stated)	AC50	14 µM (active)
c1ccc2c(c1)Cc1ccccc1-2	AC50	inactive
CCCCCCCCCCCCCC[N+](C)(C)C	AC50	1.38 µM (active)
Cc1cc(C)c(O)c(C)c1	AC50	inactive
CCCCCCCCC(=O)O	AC50	inactive
Cc1oc(-c2ccccc2)nc1CCOc1ccc(C[C@H](Nc2ccccc2C(=O)c2ccccc2)C(=O)O)cc1	AC50	14.9 µM (active)

// query Quote AC50 reported for `Cc1cc(CCN2CCN(c3nsc4ccccc34)CC2)cc2c1NC(=O)CC2(C)C` please.
// result 26.5 µM (active)

// query Specify measured AC50 for N#C[C@@H]1CC(F)(F)CN1C(=O)CNC1CC2CCC(C1)N2c1ncccn1 (some centres not stated) .
// result 8.06 µM (active)

// query Consider the compound `CCCCCCCCCCCCN1CCCC1=O` and give its recorded AC50.
// result 33.6 µM (active)

// query Note AC50 for the compound shown: `c1ccc2c(c1)ccc1ccccc12`
// result inactive

// query Provide AC50 value for the following compound: `CCCCCCC(=O)O`
// result inactive

// query Respond only with AC50 recorded for `CC(=O)NC1(c2cccc(F)c2)CCN(CC[C@@]2(c3ccc(Cl)c(Cl)c3)CN(c3ccccc3)C(=O)CO2)CC1`
// result 21.6 µM (active)

====

Study Target: sheep Cyclooxygenase-1 (Cox1), PTGS1 (gene 443551)
Assay Procedure: NVS_ENZ_oCOX1: NovaScreen (NVS) Enzymatic Assay for sheep Cyclooxygenase-1 (Cox1) (AID 2283239);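 note: actives reduce cyclooxygenase activity so potencies are for inhibitors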
Records with an inconclusive call do not appear. The source made the active and inactive calls. Rule for the calls: active = hit-call score of the fitted dose curve at least 0.9, where 1 is the maximum; inconclusive = response in the unintended direction; inactive = score below 0.9.
# output must be one of T = active, F = inactive

NC(=O)N(O)[C@@H]1C=C[C@H](Oc2cccc(Oc3ccc(F)cc3)c2)C1 F
CCCCCCCCCCCCc1ccccc1S(=O)(=O)O T
Cc1oc(-c2ccccc2)nc1CCOc1ccc(C[C@H](Nc2ccccc2C(=O)c2ccccc2)C(=O)O)cc1 T
Oc1cc2ccccc2c2ccccc12 T

Could you now consider this next compound?
// query Per the assay record, what outcome was assigned to `Oc1cccc(O)c1` ?
// result T

====

Assay Procedure: APR_HepG2_MitoMembPot_72hr: Apredica 72-hour HepG2 Assay for Mitochondrial Membrane Potential (AID 2282917)
Run Conditions: imaging, actives raise or lower the signal
The source made the active and inactive calls. The calls were made as follows: active = hit-call score of the fitted dose curve at least 0.9, where 1 is the maximum; inactive = score below 0.9.
Use one of these outcomes when replying: class 1 for active, class 0 for inactive

// query Short answer needed: outcome of this test for `c1ccc2cc3c(ccc4ccccc43)cc2c1` ?
// result class 1

// query Assay result, entry CCc1nn(C2CCCCC2)c2cc(C3(C#N)CCC(C(=O)O)CC3)ccc12 (stereo unspecified) — outcome?
// result class 0

// query Look up the recorded call for `CC(C)(C)c1cccc(C(C)(C)C)c1O` in this test.
// result class 1

// query Please let me know the test result on file for `OCCC(F)(F)C(F)(F)C(F)(F)C(F)(F)C(F)(F)C(F)(F)C(F)(F)C(F)(F)F` .
// result class 0

// query Entry `OC1CCCCC1` : call = ?
// result class 0

// query Recorded call for `O=[N+]([O-])c1ccc(O)cc1` ?
// result class 0

// query So what was the verdict on `c1ccc2c(c1)ccc1ccccc12` in this test?
// result class 0

// query Could you check what this test reported for `ClC1=C(Cl)C(Cl)(Cl)C(Cl)=C1Cl` ?
// result class 0

// query Please let me know the test result on file for `CCCCCCC(=O)O` .
// result class 0

====

Assay Procedure: CCTE_Harrill_HTTr_Apoptosis_MCF7: CCTE's 6-hour Apoptosis Assessment for the High-Throughput Transcriptomics (HTTr) Platform, in MCF-7 cells cultured in DMEM + 10% fetal bovine serum, Harrill Lab (AID 2284011)
Activity calls are given as the source filed them. The calls were made as follows: active = hit-call score of the fitted dose curve at least 0.9, where 1 is the maximum; inactive = score below 0.9.
Your response should consist of one outcome taken from 1 for active, 0 for inactive

Below are worked cases with known answers.
O=C(O)Cc1cc(I)c(Oc2cc(I)c(O)c(I)c2)c(I)c1 0
CC[C@H](c1ccc(O)cc1)[C@@H](CC)c1ccc(O)cc1 0
CCCCCCCCCCCCc1ccccc1S(=O)(=O)O 0
C=C(C)C(=O)OCCC(F)(F)C(F)(F)C(F)(F)C(F)(F)C(F)(F)C(F)(F)F 0
CCC(=C(c1ccc(O)cc1)c1ccc(OCCN(C)C)cc1)c1ccccc1 1

// query Tell me the recorded outcome of this test for `ClC1=C(Cl)C(Cl)(Cl)C(Cl)=C1Cl` .
// result 0

====

Assay Procedure: CCTE_Simmons_MITO_basal_resp_rate: CCTE's HepG2 Seahorse XF Respirometric Screening Assay at Basal Respiratory State, Simmons Lab (AID 2284001)
Run Conditions: actives raise or lower the signal
The source made the active and inactive calls. The calls were made as follows: active = hit-call score of the fitted dose curve at least 0.9, where 1 is the maximum; inactive = score below 0.9.
Return exactly one item of T (active), F (inactive)

Known results for compounds:
Compound	Class Assignment
OC1CCC(C2CCCCC2)CC1 (stereo unspecified)	T
CCCCCCCCCCCCN1CCCC1=O	T
Oc1cc2ccccc2c2ccccc12	T

// query Outcome logged for `O=C(O)Cc1cc(I)c(Oc2cc(I)c(O)c(I)c2)c(I)c1` in this assay:
// result F

// query What outcome does the record of this test show for `CN1CCN(c2ccccc2/C=C2\SCCN(c3ccc(Cl)c(Cl)c3)C2=O)CC1` ?
// result F

// query What did the test return for `CC[C@H](c1ccc(O)cc1)[C@@H](CC)c1ccc(O)cc1` ?
// result T
